Molecular target: human cannabinoid receptor 1 (huCB1), full length, expressed on cells (human, UniProt P21554 1-472)
Sequence (P21554 whole entry): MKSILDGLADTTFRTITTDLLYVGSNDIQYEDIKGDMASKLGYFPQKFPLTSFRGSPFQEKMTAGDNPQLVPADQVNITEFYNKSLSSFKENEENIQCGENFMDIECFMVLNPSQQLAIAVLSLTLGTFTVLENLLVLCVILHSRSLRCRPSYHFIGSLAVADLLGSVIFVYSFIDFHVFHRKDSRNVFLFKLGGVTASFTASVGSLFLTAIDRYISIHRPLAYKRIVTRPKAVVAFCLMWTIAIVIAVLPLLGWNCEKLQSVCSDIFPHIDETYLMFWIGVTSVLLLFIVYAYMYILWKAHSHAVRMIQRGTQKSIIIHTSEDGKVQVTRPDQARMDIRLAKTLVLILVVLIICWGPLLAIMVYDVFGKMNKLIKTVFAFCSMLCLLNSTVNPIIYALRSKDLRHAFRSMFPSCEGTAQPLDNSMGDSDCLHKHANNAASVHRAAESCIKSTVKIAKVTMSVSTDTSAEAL
Assay: cell-based or functional assay
endpointName: n = 1 IC50, -fold vs Rimo (fold vs Rimonabant)
Field: numeric (fold vs Rimonabant). Do not append units.

Known n = 1 IC50, -fold vs Rimo results, listed for orientation:
>  <binder>
LIBC523868-1 (antibody, V domains shown) VH: QVQLQESGPGLVKPSQTLSLTCTVSGGSIRRGGDYWSWIRQHPGKGLEWIGHVYYEGSTAYNPSFEDRATISVNTYKNQFSLKLSSVTAADTAVYYCARDYDILTGYSYYYYGMDVWGQGTTVTVSS VL: DIVMTQSPLSLPVTPGEPASISCRSSQSLLTSYGINYVDWYLQKPGQSPQLLIYLGSNRASGVPDRFSGSGSGTDFTLKISRVEAEDVGVYYCMQARQIPRTFGQGTKVEIKR

>  <measuredResult>
2.81

$$$$
>  <binder>
LIBC527912-1 (antibody, V domains shown) VH: QVQLQESGPGLVKPSQTLSLTCTVSGGSIRRGGDYWSWIRQHPGKGLEWIGYIYQTGQTKYNPNFEGRATISVNTYKNQFSLKLSSVTAADTAVYYCARDYDILTGYSYYYYGMDVWGQGTTVTVSS VL: DIQLTQSPSSLSASVGDRVTITCRASQSISSYLNWYQQKPGKAPKLLIYAASSLRSGVPSRFSGSGSGTDFTLTISSLQPEDFATYYCQQYSNYPLTFGGGTRVEIKR

>  <measuredResult>
1.4

$$$$

Answer with the recorded n = 1 IC50, -fold vs Rimo of LIBC523670-1 (antibody, V domains shown) VH: QVQLQESGPGLVKPSQTLSLTCTVSGGSIRRGGDYWAWIRQHPGKGLEWIGHVYQTGQTAYNPNLESRATISVNTYKNQFSLKLSSVTAADTAVYYCARNYDVLSGYSYYYYGMDVWGQGTTVTVSS VL: DIVMTQSPLSLPVTPGEPASISCRSSQSLLTSYGANYLDWYLQKPGQSPQLLIYQGSNRASGVPDRFSGSGSGTDFTLKISRVEAEDVGVYYCMQALQIPRTFGQGTKVEIKR only.
2.07
